- Measurement target: Luciferin 4-monooxygenase (Photinus pyralis) (UniProt P08659)
- Sequence (P08659 whole entry, looked up): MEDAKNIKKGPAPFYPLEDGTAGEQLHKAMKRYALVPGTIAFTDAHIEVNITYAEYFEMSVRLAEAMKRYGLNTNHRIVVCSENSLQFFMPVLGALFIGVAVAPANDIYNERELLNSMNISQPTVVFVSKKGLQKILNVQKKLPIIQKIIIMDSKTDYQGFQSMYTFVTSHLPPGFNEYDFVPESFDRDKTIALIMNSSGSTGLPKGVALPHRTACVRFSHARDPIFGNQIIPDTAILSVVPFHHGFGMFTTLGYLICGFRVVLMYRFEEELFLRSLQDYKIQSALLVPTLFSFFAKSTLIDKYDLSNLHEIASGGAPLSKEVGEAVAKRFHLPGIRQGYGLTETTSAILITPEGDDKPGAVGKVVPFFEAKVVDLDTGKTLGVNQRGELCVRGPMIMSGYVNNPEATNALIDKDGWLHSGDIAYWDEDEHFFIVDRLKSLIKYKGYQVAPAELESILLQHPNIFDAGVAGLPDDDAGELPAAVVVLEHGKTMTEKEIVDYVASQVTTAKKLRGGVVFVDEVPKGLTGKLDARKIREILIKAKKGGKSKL
- Assay remarks: qHTS assay to identify small molecule inhibitors of firefly luciferase (AID 1224835); further: nearly all actives have a fitted effect of over 25% in size
- Assay context: purified P. pyralis luciferase, luminescence inhibition; series mostly up to 115 µM
Records with an inconclusive call do not appear. The source made the active and inactive calls. The call rests on the fitted dose curve; in most records, active means well fitted inhibition curve with a large enough effect in the repeat runs; inconclusive means weak or mixed curves; inactive means flat fitted curve, though single readings scatter.
Outcomes: 1.0 = active, 0.0 = inactive

>>> label_class("O=C(Nc1ccccc1)N(Cc1ccc(Cl)cc1)C1CCCC1")
0.0
>>> label_class("CCC(Cl)[N+](=O)[O-] (stereo not given)")
0.0
>>> label_class("NC(=O)O")
0.0
>>> label_class("Cc1coc2c1CCC(C)C2 (stereo not given)")
0.0
>>> label_class("O=[N+]([O-])c1ccc2c3c(cccc13)CC2")
0.0
>>> label_class("Cc1ccccc1CO[C@@H]1C[C@@]2(C(C)C)CC[C@]1(C)O2")
0.0
>>> label_class("CCOC(=O)NC(=S)Nc1ccccc1NC(=S)NC(=O)OCC")
0.0
>>> label_class("CCOP(=O)(N=C1SCCS1)OCC")
0.0
>>> label_class("[As]#[In]")
0.0
>>> label_class("CCS(=O)(=O)C(C)(C)S(=O)(=O)CC")
0.0
>>> label_class("Nc1cnn(-c2ccccc2)c(=O)c1Cl")
0.0
>>> label_class("CCCSP(=S)(OCC)Oc1ccc(Cl)cc1Cl (stereo not given)")
0.0
>>> label_class("CS(=O)(=O)c1cc(C(F)(F)F)ccc1C(=O)c1cnoc1C1CC1")
0.0
>>> label_class("Clc1ccccc1N1CCNCC1")
0.0
>>> label_class("c1cc[c]([Hg][c]2ccccc2)cc1")
1.0
>>> label_class("CCN(Cc1ccc(Cl)nc1)/C(=C/[N+](=O)[O-])NC")
0.0
>>> label_class("Fc1cc(Br)ccc1CBr")
0.0
>>> label_class("CNC(=O)Oc1ccc(N(C)C)c(C)c1")
0.0
>>> label_class("N#CC(Cl)(Cl)Cl")
0.0
>>> label_class("O=NN1CCCCC1")
0.0
